Method description: Components of the Cytosolic LPS Sensing Pathway: Gene Identification via Genome-wide siRNA Screen
Measurement setup: RAW264.7 macrophages, IL-1a HTRF, actives lie on both sides, screened at 100 nM (by protocol), cells primed 5 h with Pam3CSK4 first
Out of some 53,000 sequences screened, about 3,700 (7%) were called active.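 How the source made its calls: active means gene knockdowns whose robust z-score for IL-1 alpha signal is at least 2 or at most -2, so actives lie on both sides; inactive means the rest.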 This is one part of a sample in which actives are shown more often than they occur.
Hello, when you answer, please use one of the following outcomes: active, inactive

## Task Assay outcome for GCAUUCAUACAUGUAACAGTT against Wdr70 : what was it?
## Result inactive

## Task Assay outcome for CCCAGCAACUACUGGAAACTT against Tas2r139 : what was it?
## Result inactive

## Task Assay outcome for GCUAUCCUCAAUUGCACACTT against Atxn3 : what was it?
## Result inactive

## Task Assay outcome for GGAUGGACCUUCAGAAAAGTT against Srrm4 : what was it?
## Result inactive

## Task Assay outcome for GGUUGCUAGUGCUAAGGACTT against Pdlim2 : what was it?
## Result inactive

## Task Assay outcome for GGGAGGAGAGGACAAAUUATT against Ywhae : what was it?
## Result inactive

## Task Assay outcome for GCAGCUUUGAAAUUGUCCATT against Stard5 : what was it?
## Result inactive

## Task Assay outcome for GAAAAAUAAUGGAGUUUGGTT against Gtf2h5 : what was it?
## Result inactive

## Task Assay outcome for GGGAGAGAUGUCAUUGCACTT against Eif4a3 : what was it?
## Result inactive

## Task Assay outcome for GCAAAACUGAACAAAGUACTT against Xirp2 : what was it?
## Result inactive

## Task Assay outcome for CGGAACACCAAUAAGAGAATT against Hgd : what was it?
## Result inactive

## Task Assay outcome for GGUAUCUGUGUGACUUCACTT against Pgpep1 : what was it?
## Result active

## Task Assay outcome for GGAGACAUAUGAGACUCUGTT against Fcer1g : what was it?
## Result inactive

## Task Assay outcome for GCCUGGUUAUUAAUUUAUCTT against Dzank1 : what was it?
## Result inactive

## Task Assay outcome for GGGAUUGGAAGAGAAAUGGTT against Hsd11b1 : what was it?
## Result inactive

## Task Assay outcome for GAUGGACAAACGGAAGUGCTT against Iapp : what was it?
## Result inactive

## Task Assay outcome for GGAAAGAGGAAUCAAGAAATT against Slc23a2 : what was it?
## Result inactive

## Task Assay outcome for GGCCUUUGGGACAUGUGUGTT against Olfr552 : what was it?
## Result active

---

Method description: Components of the Cytosolic LPS Sensing Pathway: Gene Identification via Genome-wide siRNA Screen
Measurement setup: RAW264.7 macrophages, IL-1a HTRF, actives lie on both sides, screened at 100 nM (by protocol), cells primed 5 h with Pam3CSK4 first
Among all 53,000 sequences or so, about 3,700 (7%) were called active.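 How the source made its calls: active means gene knockdowns whose robust z-score for IL-1 alpha signal is at least 2 or at most -2, so actives lie on both sides; inactive means the rest.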 The full list was thinned out, with actives kept by preference.
Hello, when you answer, please use one of the following outcomes: active, inactive

GCUCUCAUUAGCAUUAUCGTT against Gria1 :: inactive
GCCACGUAGACUGAUAUAGTT against Irf5 :: inactive

## Task Assay outcome for GGAACUAUCACGUGUUCUATT against Myo7a : what was it?
## Result inactive

## Task Assay outcome for GCAAGUCGAGGUAGAUUGCTT against Rap1a : what was it?
## Result inactive
